Sourced from paper PMC6931074

Format: physicochemical
COND: aqueous phosphate buffer, pH 3.13, half-time (t1/2), pH 3.13, 100 °C
PROPERTY_LABEL: half-life at 150 μg/mL (h)
Provide only the numeric value, understood in h.

Requested read-out: half-life at 150 μg/mL. Entry: CC(/C=C1\SC(=S)N(CC(=O)O)C1=O)=C\c1ccccc1 [epalrestat]
11.1

----------
Assay type: physicochemical
COND: aqueous phosphate buffer, pH 1.85, half-time (t1/2), pH 1.85, 60 °C
PROPERTY_LABEL: half-life at 150 μg/mL (h)
Provide only the numeric value, understood in h.

Requested read-out: half-life at 150 μg/mL. Entry: CC(/C=C1\SC(=S)N(CC(=O)O)C1=O)=C\c1ccccc1 [epalrestat]
29.6

----------
Assay type: physicochemical
COND: aqueous phosphate buffer, pH 3.13, half-time (t1/2), pH 3.13, 37 °C
PROPERTY_LABEL: half-life at 150 μg/mL (h)
Provide only the numeric value, understood in h.

Requested read-out: half-life at 150 μg/mL. Entry: CC(/C=C1\SC(=S)N(CC(=O)O)C1=O)=C\c1ccccc1 [epalrestat]
35.7

----------
Assay type: physicochemical
COND: phosphate buffer, pH 10.97, half-time (t1/2), pH 10.97, 60 °C
PROPERTY_LABEL: half-life at 150 μg/mL
Include the unit right after the number.

Requested read-out: half-life at 150 μg/mL. Entry: `CC(/C=C1\SC(=S)N(CC(=O)O)C1=O)=C\c1ccccc1`
49.5 h

----------
Format: physicochemical
COND: phosphate buffer, pH 10.97, half-time (t1/2), pH 10.97, 80 °C
PROPERTY_LABEL: half-life at 150 μg/mL (h)
Provide only the numeric value, understood in h.

Requested read-out: half-life at 150 μg/mL. Entry: `CC(/C=C1\SC(=S)N(CC(=O)O)C1=O)=C\c1ccccc1`
26

----------
Type: physicochemical
COND: phosphate buffer, pH 7.1, half-time (t1/2), pH 7.10, 100 °C
PROPERTY_LABEL: half-life at 150 μg/mL (h)
Provide only the numeric value, understood in h.

Requested read-out: half-life at 150 μg/mL. Entry: `CC(/C=C1\SC(=S)N(CC(=O)O)C1=O)=C\c1ccccc1`
9.97
